Recorded IC50, one value per entry.
assay: Inhibition of recombinant fatty acid synthase thioesterase domain by fluorogenic assay
Quantity Measured: IC50 (µM)

>  <Smiles Data>
CCCCCC[C@@H]1C(=O)N[C@H]1C[C@@H](O)CCCCC

>  <Uom>
µM

>  <Obs Value>
67.6

$$$$
>  <Smiles Data>
CCCCCCCCCCC[C@H](O)C[C@H]1[C@H](CCCCCC)C(=O)N1OCc1ccccc1

>  <Uom>
µM

>  <Obs Value>
86.8

$$$$
>  <Smiles Data>
CCCCCC[C@@H]1C(=O)N(OCc2ccccc2)[C@H]1C[C@@H](O)CCCCC

>  <Uom>
µM

>  <Obs Value>
50.5

$$$$
>  <Smiles Data>
CCCCCC[C@@H]1C(=O)N(OCc2ccccc2)[C@H]1C[C@H](CCCCC)OC(=O)[C@@H](NC=O)C(C)C

>  <Uom>
µM

>  <Obs Value>
58.2

$$$$
>  <Smiles Data>
CCCCCCCCCCC[C@@H](C[C@H]1[C@H](CCCCCC)C(=O)N1OCc1ccccc1)O[Si](C)(C)C(C)(C)C

>  <Uom>
µM

>  <Obs Value>
8.6

$$$$
>  <Smiles Data>
CCCCCCCCCCC[C@H](C[C@@H]1[C@@H](CCCCCC)C(=O)N1OCc1ccccc1)O[Si](C)(C)C(C)(C)C

>  <Uom>
µM

>  <Obs Value>
97.4

$$$$
>  <Smiles Data>
CCCCCCCCCCC[C@H](C[C@@H]1[C@@H](CCCCCC)C(=O)N1OCc1ccccc1)OC(=O)CNC=O

>  <Uom>
µM

>  <Obs Value>
39.2

$$$$
>  <Smiles Data>
CCCCCCCCCCC[C@@H](O)C[C@@H]1[C@@H](CCCCCC)C(=O)N1OCc1ccccc1

>  <Uom>
µM

>  <Obs Value>
61.2

$$$$
>  <Smiles Data>
CCCCCCCCCCC[C@@H](C[C@H]1[C@H](CCCCCC)C(=O)N1OCc1ccccc1)OC(=O)CNC=O

>  <Uom>
µM

>  <Obs Value>
68.9

$$$$
